# Test system: Hep-3B cells
# Assay remarks: Cellular assay: EPO secretion in Hep-3B cells
# Format: cell-based, human
# Condition context: 24 h, compound at 100 μM (10 μM or 100 μM), EPO secretion as percentage of control compound 7-[(4-Chloro-phenyl)-(5-methyl-isoxazol-3-ylamino)-methyl]-quinolin-8-ol
Just a reminder that ties go to False: only Cellular % EPO Stimulation strictly below 20% counts as True.

Consider the following illustrative entries.
| Compound | Label value |
| --- | --- |
| Cc1nn(-c2nc3cc(Cl)c(Cl)cc3[nH]2)c(C)c1C(=O)O [Example 22] | True |
| COc1cc2nc(-n3cc(C(=O)O)cn3)[nH]c2cc1OC [Example 9] | True |
| O=C(O)c1cnn(-c2nc3cc(-c4cccc(OCc5ccccc5)c4)ccc3[nH]2)c1 [Example 15] | True |
| O=C(O)c1cn(-c2nc3cc(Cl)c(Cl)cc3[nH]2)nc1C(F)(F)F [Example 20] | True |
| O=C(O)c1cnn(-c2nc3cc(Cl)ccc3[nH]2)c1 [Example 25] | False |

hey, is Cellular % EPO Stimulation for COc1ccc2[nH]c(-n3cc(C(=O)O)cn3)nc2c1 [Example 7] lower than 20% or not?
True

hey, is Cellular % EPO Stimulation for O=C(O)c1cnn(-c2nc3c(Cl)cc(C(F)(F)F)cc3[nH]2)c1 [Example 8] lower than 20% or not?
False

hey, is Cellular % EPO Stimulation for O=C(O)c1cnn(-c2nc3cc(-c4cccc(C(F)(F)F)c4)ccc3[nH]2)c1 [Example 17] lower than 20% or not?
True

----------
Enzyme pIC50 values, listed per item
# Assayed target: human PHD2181-417 (Homo sapiens (Human), UniProt Q9GZT9)
# Sequence (Q9GZT9 181-417): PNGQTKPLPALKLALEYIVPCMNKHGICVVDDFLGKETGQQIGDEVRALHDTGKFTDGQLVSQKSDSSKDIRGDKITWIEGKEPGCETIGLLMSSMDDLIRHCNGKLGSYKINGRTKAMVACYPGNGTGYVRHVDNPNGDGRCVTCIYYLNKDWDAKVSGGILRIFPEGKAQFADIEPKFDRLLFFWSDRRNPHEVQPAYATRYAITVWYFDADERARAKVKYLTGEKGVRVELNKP
# Assay remarks: PHD2 enzyme activity assay ([14C]-succinic acid production)
# Format: biochemical
# Condition context: PHD2181-417 polypeptide, HIF-1α peptide 10 μM, [5-14C]-2-oxoglutaric acid; 30 min pre-incubation; tested 10 μM to 3 nM
The reply should be a number, written without any unit.

Some entries whose results are on file:
| Compound | Assayed target | Enzyme pIC50 |
| --- | --- | --- |
| CS(=O)(=O)c1cc2[nH]c(-n3cc(C(=O)O)cn3)nc2cc1OC(F)(F)F | human PHD2181-417 (Homo sapiens (Human), UniProt Q9GZT9) | 7.5 |
| O=C(O)c1cnn(-c2nc3cc(Br)cc(F)c3[nH]2)c1 | human PHD2181-417 (Homo sapiens (Human), UniProt Q9GZT9) | 6.3 |
| O=C(O)c1cnn(-c2nc3cc(SCc4ccc(F)cc4)c(Cl)cc3[nH]2)c1 | human PHD2181-417 (Homo sapiens (Human), UniProt Q9GZT9) | 6.8 |
| O=C(O)c1cnn(-c2nc3cc(F)c(Br)cc3[nH]2)c1 | human PHD2181-417 (Homo sapiens (Human), UniProt Q9GZT9) | 6.7 |
| O=C(O)c1cnn(-c2nc3cc([S+]([O-])c4ccc(Cl)cc4)c(Cl)cc3[nH]2)c1 (stereo not drawn) | human PHD2181-417 (Homo sapiens (Human), UniProt Q9GZT9) | 7.2 |

Under human PHD2181-417 (Homo sapiens (Human), UniProt Q9GZT9): Enzyme pIC50 value of O=C(O)c1cnn(-c2nc3nc4cc(Cl)c(Cl)cc4nc3[nH]2)c1 ?
6.4

Under human PHD2181-417 (Homo sapiens (Human), UniProt Q9GZT9): Enzyme pIC50 value of COc1cccc(S(=O)(=O)c2cc3nc(-n4cc(C(=O)O)cn4)[nH]c3cc2Cl)c1 ?
7.4

Under human PHD2181-417 (Homo sapiens (Human), UniProt Q9GZT9): Enzyme pIC50 value of O=C(O)c1cnn(-c2nc3cc(NS(=O)(=O)C4CC4)c(Cl)cc3[nH]2)c1 ?
6.8

Under human PHD2181-417 (Homo sapiens (Human), UniProt Q9GZT9): Enzyme pIC50 value of O=C(O)c1cnn(-c2nc3cc(NCc4ccccc4)c(Cl)cc3[nH]2)c1 ?
6.2

Under human PHD2181-417 (Homo sapiens (Human), UniProt Q9GZT9): Enzyme pIC50 value of N#Cc1cc2nc(-n3cc(C(=O)O)cn3)[nH]c2cc1Cl ?
7.4

Under human PHD2181-417 (Homo sapiens (Human), UniProt Q9GZT9): Enzyme pIC50 value of CS(=O)(=O)c1ccc2nc(-n3cc(C(=O)O)cn3)[nH]c2c1 ?
7.1

Under human PHD2181-417 (Homo sapiens (Human), UniProt Q9GZT9): Enzyme pIC50 value of O=C(O)c1cnn(-c2nc3cc(SCc4ccc(C(F)(F)F)cc4)c(Cl)cc3[nH]2)c1 ?
6.7

Under human PHD2181-417 (Homo sapiens (Human), UniProt Q9GZT9): Enzyme pIC50 value of CCNc1cc2nc(-n3cc(C(=O)O)cn3)[nH]c2cc1Cl ?
6.2

----------
# System: Hep-3B cells
# Assay remarks: Cellular assay: EPO secretion in Hep-3B cells
# Type: cell-based, human
# Condition context: 24 h, compound at 100 μM (10 μM or 100 μM), EPO secretion as percentage of control compound 7-[(4-Chloro-phenyl)-(5-methyl-isoxazol-3-ylamino)-methyl]-quinolin-8-ol
Just a reminder that ties go to condition not met: only Cellular % EPO Stimulation strictly below 10% counts as condition met.

Consider the following illustrative entries.
| Molecule | Label value |
| --- | --- |
| O=C(O)c1cnn(-c2nc3cc(OC(F)(F)F)ccc3[nH]2)c1 [Example 11] | condition not met |
| O=C(O)c1cnn(-c2nc3cc(-c4cccc(O)c4)ccc3[nH]2)c1 [Example 24] | condition not met |

API: the following record is the query input.
hey, is Cellular % EPO Stimulation for Cc1cc2nc(-n3cc(C(=O)O)cn3)[nH]c2cc1C [Example 5] lower than 10% or not?
condition met

----------
# Assayed target: human PHD2181-417 (Homo sapiens (Human))
# Assay remarks: PHD2 enzyme activity assay ([14C]-succinic acid production)
# Assay type: biochemical
# Condition context: PHD2181-417 polypeptide, HIF-1α peptide 10 μM, [5-14C]-2-oxoglutaric acid; 30 min pre-incubation; tested 10 μM to 3 nM
Readout type: Enzyme pIC50
The reply should be a number, written without any unit.

Some entries whose results are on file:
| Given smiles | Measured |
| --- | --- |
| O=C(O)c1cnn(-c2nc3cc(F)c(F)cc3[nH]2)c1 | 6.6 |
| O=C(O)c1cnn(-c2nc3c(F)cc(F)cc3[nH]2)c1 | 6.8 |
| COc1ccc(S(=O)(=O)c2cc3nc(-n4cc(C(=O)O)cn4)[nH]c3cc2C(F)(F)F)cc1 | 7.6 |
| O=C(CN1CCOCC1)Nc1cc2nc(-n3cc(C(=O)O)cn3)[nH]c2cc1Cl | 6.4 |
| CC(C)S(=O)(=O)c1cc2[nH]c(-n3cc(C(=O)O)cn3)nc2cc1Cl | 7.3 |

Request the reported Enzyme pIC50 associated with O=C(O)c1cnn(-c2nc3cc(Oc4ccc(Cl)cc4)c(C(F)(F)F)cc3[nH]2)c1
7.5

Request the reported Enzyme pIC50 associated with O=C(O)c1cnn(-c2nc3cc(Nc4ccccc4)c(Cl)cc3[nH]2)c1
6.9

Request the reported Enzyme pIC50 associated with CCOc1cc2[nH]c(-n3cc(C(=O)O)cn3)nc2cc1F
6.5

Request the reported Enzyme pIC50 associated with O=C(O)c1cnn(-c2nc3c(Br)cc(Cl)cc3[nH]2)c1
6.6

----------
# Assayed target: human PHD2181-417 (Homo sapiens (Human))
# Assay remarks: PHD2 enzyme activity assay ([14C]-succinic acid production)
# Assay type: biochemical
# Condition context: PHD2181-417 polypeptide, HIF-1α peptide 10 μM, [5-14C]-2-oxoglutaric acid; 30 min pre-incubation; tested 10 μM to 3 nM
Readout type: Enzyme pIC50

Request the reported Enzyme pIC50 associated with O=C(O)c1cnn(-c2nc3cc(S(=O)(=O)c4ccccc4)c(C(F)(F)F)cc3[nH]2)c1 [Example 161]
7.6

Request the reported Enzyme pIC50 associated with O=C(O)c1cnn(-c2nc3cc(Oc4ccc(Cl)cc4F)c(Cl)cc3[nH]2)c1 [Example 146]
7.2

Request the reported Enzyme pIC50 associated with O=C(O)c1cnn(-c2nc3cc(N4CCCCC4)c(OC(F)(F)F)cc3[nH]2)c1 [Example 117]
6.5

Request the reported Enzyme pIC50 associated with O=C(O)c1cnn(-c2nc3cc(COCc4ccccc4)ccc3[nH]2)c1 [Example 123]
6.3

----------
# Assayed target: human PHD2181-417 (Homo sapiens (Human), UniProt Q9GZT9)
# Assay remarks: PHD2 enzyme activity assay ([14C]-succinic acid production);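 further: reaction ran 10 min with compound in Tris pH 7.5 buffer with catalase, DTT and ascorbate, labelled succinate freed of leftover 2-oxoglutarate by DNP precipitation, then beta counted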
# Type: biochemical
# Condition context: PHD2181-417 polypeptide, HIF-1α peptide 10 μM, [5-14C]-2-oxoglutaric acid; 30 min pre-incubation; tested 10 μM to 3 nM
Enzyme pIC50 values, listed per item
The reply should be a number, written without any unit.

Some entries whose results are on file:
| Compound | Readout type | Measured |
| --- | --- | --- |
| CCCS(=O)(=O)c1cc2[nH]c(-n3cc(C(=O)O)cn3)nc2cc1Cl [Example 102] | Enzyme pIC50 | 7.5 |
| O=C(O)c1cnn(-c2nc3cc(N4CCCC4)c(Cl)cc3[nH]2)c1 [Example 43] | Enzyme pIC50 | 6.7 |
| CC(C)(C)c1ccc(CSc2cc3nc(-n4cc(C(=O)O)cn4)[nH]c3cc2Cl)cc1 [Example 67] | Enzyme pIC50 | 7.2 |

Under human PHD2181-417 (Homo sapiens (Human), UniProt Q9GZT9): Enzyme pIC50 value of O=C(O)c1cnn(-c2nc3cc(S(=O)(=O)c4ccc(Cl)c(Cl)c4)c(Cl)cc3[nH]2)c1 [Example 87] ?
6.68

Under human PHD2181-417 (Homo sapiens (Human), UniProt Q9GZT9): Enzyme pIC50 value of O=C(O)c1cnn(-c2nc3cc(Sc4ccc(Cl)c(Cl)c4)c(Cl)cc3[nH]2)c1 [Example 63] ?
6.18

Under human PHD2181-417 (Homo sapiens (Human), UniProt Q9GZT9): Enzyme pIC50 value of O=C(O)c1cnn(-c2nc3cc(S(=O)(=O)Cc4ccc(Cl)cc4)c(Cl)cc3[nH]2)c1 [Example 173] ?
7.8

Under human PHD2181-417 (Homo sapiens (Human), UniProt Q9GZT9): Enzyme pIC50 value of O=C(O)c1cnn(-c2nc3cc(Oc4ccccc4)c(C(F)(F)F)cc3[nH]2)c1 [Example 56] ?
7.2

Under human PHD2181-417 (Homo sapiens (Human), UniProt Q9GZT9): Enzyme pIC50 value of O=C(O)c1cnn(-c2nc3c(F)c(F)c(F)cc3[nH]2)c1 [Example 31] ?
7
